# Target Or Test System: KRAS G12C (Homo sapiens, UniProt P01116, G12C)
# Sequence (P01116 1-188 isoform P01116-2 G12C): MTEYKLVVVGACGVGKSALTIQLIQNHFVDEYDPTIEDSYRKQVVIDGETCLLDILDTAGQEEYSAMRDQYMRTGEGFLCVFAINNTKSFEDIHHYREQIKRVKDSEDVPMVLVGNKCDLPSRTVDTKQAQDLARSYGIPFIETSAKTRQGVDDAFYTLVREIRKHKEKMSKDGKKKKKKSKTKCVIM
# Measurement Description: Cell Activity Assay: accumulation of GDP-bound KRAS G12C in MIAPaCa-2 cells (Raf-1 RBD capture, MSD readout)
# Type: cell-based
# Design: endogenous in cells; host or cells: MIAPaCa-2
# Condition Context: 6 hours, assay limit is 30.00
Readout: IC50 (µM)

Completed entries (count: 8):
>>> assay_value("C=CC(=O)N1CCN(c2ncnc3c(Oc4c(Cl)ccc5[nH]ncc45)nc(C(F)(F)F)cc23)CC1 [Example 04A]")
2.26
>>> assay_value("C=CC(=O)N1CCN(c2nc(Oc3cccc4c3CCN(C)C4)nc3c(Oc4c(Cl)c(Cl)cc5[nH]ncc45)nccc23)CC1 [Example 50I]")
0.008
>>> assay_value("C=CC(=O)N1CCN(c2nc(O[C@@H]3CN(C)C[C@H]3C3CC3)nc3c(Oc4c(Cl)c(F)cc5[nH]ncc45)nccc23)CC1 (racemic) [Example 39I]")
0.083
>>> assay_value("C=CC(=O)N1CCN(c2nc(O[C@H]3CCOC3)nc3c(Oc4c(Cl)c(F)cc5[nH]ncc45)nccc23)CC1 [Example 01J]")
0.339
>>> assay_value("C=CC(=O)N1CCN(c2nc(OC[C@@H]3CCOC3)nc3c(Oc4c(Cl)c(F)cc5[nH]ncc45)nccc23)CC1 [Example 05H]")
0.414
>>> assay_value("C=CC(=O)N1CCN(c2nc(N3CC(C)(C#N)C3)nc3c(Oc4c(Cl)c(F)cc5[nH]ncc45)nc(Cl)cc23)CC1 [Example 02G]")
0.584
>>> assay_value("C=CC(=O)N1CCN(c2nc(O[C@@H]3CN(C)C[C@H]3O)nc3c(Oc4c(Cl)c(F)cc5[nH]ncc45)nc(Cl)cc23)CC1 [Example 37G]")
0.338
>>> assay_value("C=CC(=O)N1CCN(c2nc(O[C@@H]3CN(C)C[C@H]3OC)nc3c(Oc4c(C)ccc5[nH]ncc45)nccc23)CC1 [Example 28I]")
1

(1) C=CC(=O)N1CCN(c2ncnc3c(Oc4c(Cl)c(C)cc5[nH]ncc45)nc(Cl)cc23)CC1 [Example 15A]
(2) C=CC(=O)N1CCN(c2nc(Oc3cccnc3OC)nc3c(Oc4c(Cl)c(F)cc5[nH]ncc45)nccc23)CC1 [Example 08I]
(3) [2H]C([2H])([2H])N1C[C@@H](OC)[C@H](Oc2nc(N3CCN(C(=O)C=C)CC3)c3cc(Cl)nc(Oc4c(Cl)c(F)cc5[nH]ncc45)c3n2)C1 [Example 41G]
(4) C#CCCN1C[C@@H](OC)[C@H](Oc2nc(N3CCN(C(=O)C=C)CC3)c3cc(Cl)nc(Oc4c(Cl)c(F)cc5[nH]ncc45)c3n2)C1 [Example 39G]
Query :: Please list these in order of increasing IC50. Thank you! List the labels in the requested order.
Result :: 3, 4, 2, 1
(3: 0.007 µM, 4: 0.014 µM, 2: 0.265 µM, 1: 0.468 µM)

(I) C=CC(=O)N1CCN(c2nc(N3CC(N(C)C)C3)nc3c(Oc4c(Cl)c(C)cc5[nH]ncc45)nccc23)CC1 [Example 04E]
(II) C=CC(=O)N1CCN(c2nc(OC[C@@H]3C[C@H](F)CN3C)nc3c(Oc4c(Cl)c(F)cc5[nH]ncc45)nc(Cl)cc23)CC1 [Example 21G]
(III) C=CC(=O)N1CCN(c2ncnc3c(Oc4c(C)ccc5[nH]ncc45)nccc23)CC1 [Example 01A]
(IV) C=CC(=O)N1CCN(c2nc(OC[C@]3(F)CCCN(C)C3)nc3c(Oc4c(Cl)c(F)cc5[nH]ncc45)nc(Cl)cc23)CC1 [Example 25G]
(V) C=CC(=O)N1CCN(c2nc(O[C@@H]3CN(C)C[C@H]3OC)nc3c(Oc4c(Cl)ccc5[nH]ncc45)nccc23)CC1 [Example 49I]
Query :: Please list these in order of increasing IC50. Thank you! List the labels in the requested order.
Result :: IV, II, V, I, III

Measured values drawn from patent US10662204B2 for this set.
